Recorded pKi for compounds tested on 5-hydroxytryptamine receptor 5A (Homo sapiens, UniProt P47898), drawn from a number of studies.
pKi: −log10 of the molar value.

compound	measured.on	meas.value
COc1ccccc1CNC(=N)Nc1nnc(C)s1	5-hydroxytryptamine receptor 5A (Homo sapiens, UniProt P47898)	6.30 to 7.30
CC1C=C(c2c(F)cc(F)cc2F)c2cc(C(=O)N=C(N)N)ccc2O1 (centres unmarked)	5-hydroxytryptamine receptor 5A (Homo sapiens, UniProt P47898)	8.52 to 9.52
COc1cccc(OC)c1CNC(=N)Nc1nc(-c2ccc(C(C)C)cc2)cs1	5-hydroxytryptamine receptor 5A (Homo sapiens, UniProt P47898)	6.30 to 7.30
CCOc1ccc(C2=CCCc3ccc(C(=O)N=C(N)N)cc32)cc1	5-hydroxytryptamine receptor 5A (Homo sapiens, UniProt P47898)	7.52 to 8.52
COc1cc(Cl)ccc1-c1cccc2ccc(C(=O)N=C(N)N)cc12	5-hydroxytryptamine receptor 5A (Homo sapiens, UniProt P47898)	8.52 to 9.52

stdin: Field request: pKi | item: CC1C=C(c2ccncc2)c2cc(C(=O)N=C(N)N)ccc2O1 (centres unmarked)
stdout: 6.52 to 7.52
